- METHOD DESCRIPTION: pharmacokinetics assay in mice
- Assay type: in vivo, mouse
- CONDITION DETAILS: male, ICR, mouse, plasma, po, 20 mg/kg
MEASURE NAME: half-life (h)
Numbers only, in h.

(Q) Requested field: half-life. Item: CNC(=O)c1cc(Oc2ccc(NC(=O)Nc3cc(C(F)(C(F)(F)F)C(F)(F)F)ccc3F)cc2)ccn1
(A) 5.6
